All figures here come from ChEMBL document CHEMBL4265968.

system: Mycobacterium tuberculosis; assay: Antimycobacterial activity against GFP expressing Mycobacterium tuberculosis H37Rv after 7 days in presence of EthR2 inhibitor SMARt-420 by fluorescence assay; assay type: functional; conditions: 168 h
MIC50 reference

{"molecule": "CCCc1cc(C(N)=S)ccn1 [PROTIONAMIDE]", "censor-symbol": "=", "MIC50 (µM)": 0.5}
{"molecule": "NC(=S)c1ccnc(CC(F)(F)F)c1", "censor-symbol": "=", "MIC50 (µM)": 1.5}
{"molecule": "CCOC(=O)CCc1cc(C(N)=S)ccn1", "censor-symbol": "=", "MIC50 (µM)": 1.3}
{"molecule": "NC(=S)c1ccnc(Cc2cccc(F)c2)c1", "censor-symbol": "=", "MIC50 (µM)": 0.1}
{"molecule": "CC(c1ccccc1)c1cc(C(N)=S)ccn1 (stereo unspecified)", "censor-symbol": "=", "MIC50 (µM)": 0.7}
{"molecule": "CCCCc1cc(C(N)=O)ccn1", "censor-symbol": ">", "MIC50 (µM)": 30}

====

system: Mycobacterium tuberculosis; experiment: Antimycobacterial activity against GFP expressing Mycobacterium tuberculosis H37Rv after 7 days in presence of EthR2 inhibitor SMARt-420 by fluorescence assay; assay type: functional; conditions: 168 h

{"molecule": "NC(=S)c1ccnc(Cc2ccccc2)c1", "assay-system": "Mycobacterium tuberculosis", "MIC50 (µM)": 0.1}
{"molecule": "CCC(C)c1cc(C(N)=S)ccn1 (stereo unspecified)", "assay-system": "Mycobacterium tuberculosis", "MIC50 (µM)": 0.2}
{"molecule": "NC(=S)c1ccnc(CC2CCCCC2)c1", "assay-system": "Mycobacterium tuberculosis", "MIC50 (µM)": 0.7}
{"molecule": "CC(C)c1cc(C(N)=S)ccn1", "assay-system": "Mycobacterium tuberculosis", "MIC50 (µM)": 0.2}
{"molecule": "CCCCc1cc(C(N)=S)ccn1", "assay-system": "Mycobacterium tuberculosis", "MIC50 (µM)": 0.4}
{"molecule": "COc1ccc(Cc2cc(C(N)=S)ccn2)cc1", "assay-system": "Mycobacterium tuberculosis", "MIC50 (µM)": 0.2}
